The reported measurements were obtained from patent US9181237B2.

Tested on: murine melanoma cell line, B16
assay.remarks: B16 cancer cell screening assay: inhibition of B16 proliferation
Assay type: cell-based
condition.notes: inhibition of B16 proliferation; B16 cells exposed to several concentrations; read-out: B16 Profile IC50
property: pIC50
Remember the convention: pIC50 equals -log10 of concentration in molar.

// pIC50 lookup, key: COc1cc2c(cc1O)[C@@H](Cc1ccccc1)N1CCc3cc4c(cc3[C@@H]1C2)OCO4 [M-R-0013]
4.12
